molecular target: Gamma-secretase; test: Inhibition of human gamma-secretase expressed in CHO cells assessed as suppression of amyloid beta 40 production using C100-Flag as substrate incubated for 4 hrs by ELISA relative to DMSO control; assay type: cell-based
Reported endpoint: IC50 (µM)

A. COC(=O)c1ccc(CN(c2cc(F)ccc2F)S(=O)(=O)c2ccc(F)cc2)cc1
B. O=S(=O)(c1ccc(F)cc1)N(Cc1ccccc1OC1CCOCC1)c1cc(F)ccc1F
Of A and B , whose reported IC50 is the larger number? Lab note: record the label of whichever item you select.
A

---

experiment: Protein binding in human plasma; assay type: ADME, cell-free; conditions: read-out: PPB (converted)
Reported endpoint: fraction unbound
// response body must contain only the number

response.value for CC(C)N(Cc1ccccc1)C(=O)c1ccc2ccccc2c1 (field: fraction unbound) = 0.043
